# Test system: SK-MEL-5 melanoma
# METHOD SUMMARY: NCI tumour cell line growth inhibition, 48 h; in the data active = GI50 below about 0.43 µM; inactive = the rest
Possible outcomes: active, inactive

# COMPOUND, CLASSIFICATION
data = [
    ("COc1cccc(-c2cc(-c3ccc(Nc4nc(Nc5ccc(Cl)cc5)nc(Nc5ccc(Cl)cc5)n4)cc3)nc(N)c2C#N)c1", "inactive"),
    ("COc1cc(C(=O)N[C@@H]2CCCN(C)C2)ccc1Nc1ncc2c(n1)N(C1CCCC1)CC(C)(C)C(=O)N2C", "active"),
    ("COc1ccc2c(c1)OCC1c3cc(OC)ccc3OC21 (stereo not drawn)", "inactive"),
    ("OC1(c2ccccc2)c2ccccc2N(c2ccccc2)c2ccc(Cl)cc21 (stereo not drawn)", "active"),
    ("CN1CC[C@H](N(C)C(=O)N2CC(c3cc(F)ccc3F)=C[C@@]2(CO)c2ccccc2)[C@H](F)C1", "active"),
    ("COc1ccc(-c2cc(-c3ccc(Cl)cc3)c(C#N)c(=O)n2CCCCCC(=O)Nc2ccccc2N)cc1", "inactive"),
    ("O[C@@H]1CCCCN1Cc1cc2cc3c(cc2c2cc(OCc4ccccc4)ccc12)OCO3", "inactive"),
    ("CC1(C)N=C(N)N=C(N)N1c1cccc(CC(=O)Nc2ccccc2)c1", "inactive"),
]
